Biological target: Bifunctional epoxide hydrolase 2 (Homo sapiens, UniProt P34913)
Sequence (P34913 whole entry, the tested form may be a part): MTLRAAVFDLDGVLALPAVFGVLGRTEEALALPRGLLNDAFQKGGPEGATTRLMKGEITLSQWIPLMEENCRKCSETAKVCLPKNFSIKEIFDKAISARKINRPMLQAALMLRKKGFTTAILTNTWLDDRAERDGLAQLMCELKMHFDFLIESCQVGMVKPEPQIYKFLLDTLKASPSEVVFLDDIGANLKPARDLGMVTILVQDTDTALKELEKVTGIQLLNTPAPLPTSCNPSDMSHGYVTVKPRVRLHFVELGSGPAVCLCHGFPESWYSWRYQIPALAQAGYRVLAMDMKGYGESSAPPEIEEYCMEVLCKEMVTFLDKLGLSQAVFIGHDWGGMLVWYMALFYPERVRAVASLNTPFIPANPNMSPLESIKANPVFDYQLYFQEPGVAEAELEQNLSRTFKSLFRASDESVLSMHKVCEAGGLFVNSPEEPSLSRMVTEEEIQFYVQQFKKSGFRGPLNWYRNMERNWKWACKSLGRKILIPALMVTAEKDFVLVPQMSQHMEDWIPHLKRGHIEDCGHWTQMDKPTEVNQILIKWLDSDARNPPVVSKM
Test: Inhibition of C-terminal domain of human sEH-H assessed as reduction in fluorescent naphthalene aldehyde formation using PHOME as substrate preincubated with enzyme for 30 mins followed by substrate addition and measured every minute for 45 mins by fluorescence based analysis
Each item that follows carries a reported pIC50.
Please note pIC50 is a logarithmic value: minus log10 of concentration in mol/L. Answer with that number alone.

Solved cases below.
> print(dat)
                                smiles.text  attribute.measured  quantitative.readout
1  COc1ccc(CNC(=O)[C@@H]2CCC[C@H](Nc3ccc([N+](=O)[O-])c4nonc34)C2)c(C(F)(F)F)c1               pIC50                  8.84
2  O=C(O)CCCCCCCCCCNC(=O)NC12CC3CC(CC(C3)C1)C2               pIC50                  8.59

Please look at the following compound next.
Item O=C(NCc1ccc(NS(=O)(=O)C2CC2)cc1C(F)(F)F)c1ccc2[nH]ccc2c1 ; assay system Bifunctional epoxide hydrolase 2 (Homo sapiens, UniProt P34913); pIC50 reported as 7.53

---

Target: Bifunctional epoxide hydrolase 2 (Mus musculus, UniProt P34914)
Sequence (P34914 whole entry): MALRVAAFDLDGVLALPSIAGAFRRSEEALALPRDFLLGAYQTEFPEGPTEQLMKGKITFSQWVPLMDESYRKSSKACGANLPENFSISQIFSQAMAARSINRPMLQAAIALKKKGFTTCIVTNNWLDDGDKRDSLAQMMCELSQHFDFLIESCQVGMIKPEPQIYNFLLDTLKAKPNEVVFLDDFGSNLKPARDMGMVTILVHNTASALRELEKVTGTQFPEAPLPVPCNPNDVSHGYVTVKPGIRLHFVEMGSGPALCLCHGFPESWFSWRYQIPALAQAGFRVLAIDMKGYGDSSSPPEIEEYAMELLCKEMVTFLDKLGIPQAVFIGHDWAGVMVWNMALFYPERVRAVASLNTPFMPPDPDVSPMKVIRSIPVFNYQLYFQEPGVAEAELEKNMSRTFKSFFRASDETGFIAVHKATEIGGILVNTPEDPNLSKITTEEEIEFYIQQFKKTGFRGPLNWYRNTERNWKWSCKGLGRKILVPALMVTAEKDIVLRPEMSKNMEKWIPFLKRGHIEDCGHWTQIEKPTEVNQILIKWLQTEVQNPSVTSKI
Assay: Inhibition of C-terminal domain of mouse sEH-H assessed as reduction in fluorescent naphthalene aldehyde formation using PHOME as substrate preincubated with enzyme for 30 mins followed by substrate addition and measured every minute for 45 mins by fluorescence based analysis
attribute.measured: pIC50
Please note pIC50 is a logarithmic value: minus log10 of concentration in mol/L. Answer with that number alone.

Item: COc1ccc(CNC(=O)[C@@H]2CCC[C@H](Nc3ccc([N+](=O)[O-])c4nonc34)C2)c(C(F)(F)F)c1 | pIC50: 8.11

---

Molecular target: Bifunctional epoxide hydrolase 2 (Homo sapiens)
Assay: Inhibition of human sEH BacMam transduced HEK293 cells assessed as reduction in 14,15-DHET formation using 14,15-EET as substrate preincubated for 30 mins followed by susbtrate addition and measured after 90 mins by fluorescence polarization assay
Format: cell-based
attribute.measured: IC50 (nM)
Quick note: give the figure in nM, leave out the unit.

Item: O=C(O)CCCCCCCCCCNC(=O)NC12CC3CC(CC(C3)C1)C2 | IC50: 34
